Tgt: hERG protein (Homo sapiens, UniProt Q12809)
Sequence (Q12809 whole entry): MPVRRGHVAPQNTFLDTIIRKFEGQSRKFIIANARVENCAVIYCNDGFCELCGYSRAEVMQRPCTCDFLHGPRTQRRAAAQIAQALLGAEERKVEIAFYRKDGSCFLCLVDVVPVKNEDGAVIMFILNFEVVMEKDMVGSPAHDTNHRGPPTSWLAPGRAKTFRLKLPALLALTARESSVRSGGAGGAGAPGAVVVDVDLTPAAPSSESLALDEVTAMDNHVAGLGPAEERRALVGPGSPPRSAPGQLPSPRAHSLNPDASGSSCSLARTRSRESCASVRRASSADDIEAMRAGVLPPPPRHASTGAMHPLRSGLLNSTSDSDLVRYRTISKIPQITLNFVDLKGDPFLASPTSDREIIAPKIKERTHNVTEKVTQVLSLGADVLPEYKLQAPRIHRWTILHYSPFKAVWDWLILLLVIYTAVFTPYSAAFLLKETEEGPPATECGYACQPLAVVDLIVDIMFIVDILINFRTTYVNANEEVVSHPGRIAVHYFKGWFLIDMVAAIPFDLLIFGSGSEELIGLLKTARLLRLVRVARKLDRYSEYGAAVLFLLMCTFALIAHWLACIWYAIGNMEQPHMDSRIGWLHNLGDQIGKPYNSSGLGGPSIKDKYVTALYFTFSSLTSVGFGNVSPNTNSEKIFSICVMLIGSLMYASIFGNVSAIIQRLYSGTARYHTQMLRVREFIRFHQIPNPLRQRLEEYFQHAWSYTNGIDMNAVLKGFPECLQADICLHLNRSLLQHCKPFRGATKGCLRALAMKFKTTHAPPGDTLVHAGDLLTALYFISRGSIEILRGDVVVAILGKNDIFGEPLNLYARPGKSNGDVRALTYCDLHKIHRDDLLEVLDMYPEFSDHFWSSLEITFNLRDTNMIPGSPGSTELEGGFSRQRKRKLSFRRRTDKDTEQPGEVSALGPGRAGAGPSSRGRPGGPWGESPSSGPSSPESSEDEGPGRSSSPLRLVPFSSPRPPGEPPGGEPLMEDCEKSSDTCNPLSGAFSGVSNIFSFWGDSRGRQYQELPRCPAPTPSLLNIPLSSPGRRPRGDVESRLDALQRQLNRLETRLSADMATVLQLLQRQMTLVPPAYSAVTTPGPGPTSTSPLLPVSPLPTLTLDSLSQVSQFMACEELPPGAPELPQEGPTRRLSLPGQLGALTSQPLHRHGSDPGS
Quantity name: IC50 (µM)
Quick reminder: number only, in µM, skip the unit.

Field: IC50 (hERG protein (Homo sapiens, UniProt Q12809)). Entry: COc1cc(N2CCC(N3CCN(C)CC3)CC2)c(C)cc1Nc1ncc(Br)c(Nc2ccc3nccnc3c2P(C)(C)=O)n1 [A, reference compound]
13.5

###

System: A431 EGFR wild-type cell line
Assay procedure: A431 EGFR wild-type cell proliferation assay (CellTiter Glo, 72 h)
Type: cell-based
Experimental conditions: Homo sapiens, A-431, CTG, read-out: A431 EGFR WT IC50
Quantity name: pIC50
Scale explanation: pIC50 corresponds to minus log10 of a concentration expressed in moles per litre.

The examples below pair each entry with its known result.
// returns reported pIC50 for input `COc1cc(N2CCC(N(C)C)CC2)c(-c2cn[nH]c2)cc1Nc1ncc(Cl)c(Nc2ccc3nccnc3c2P(C)(C)=O)n1`
6.24

// returns reported pIC50 for input `COc1cc(N2CCC(N(C)C)CC2)c(-c2cnn(C)c2)cc1Nc1ncc(Cl)c(Nc2ccc3nccnc3c2P(C)(C)=O)n1`
6.96

// returns reported pIC50 for input `COc1cc(N2CCN(C3CCCC3)CC2)c(-c2cnn(C)c2)cc1Nc1ncc(Br)c(Nc2ccc(C)c(C)c2P(C)(C)=O)n1`
6.62

// returns reported pIC50 for input COc1cc(N2CCC(N3CCN(C)CC3)CC2)c(C)cc1Nc1ncc(Br)c(Nc2ccc3nccnc3c2P(C)(C)=O)n1 [A, reference compound]
6.43

// returns reported pIC50 for input `COc1cc(N2CCC(N3CCCCC3)CC2)c(-c2cnn(C)c2)cc1Nc1ncc(Cl)c(Nc2ccc3nccnc3c2P(C)(C)=O)n1`
6.94

// returns reported pIC50 for input `COc1cc(N2CCN(C3CCCC3)CC2)c(-c2cnn(C)c2)cc1Nc1ncc(Br)c(Nc2ccc3nccnc3c2P(C)(C)=O)n1`
6.97

---
// returns reported pIC50 for input `COc1cc(N2CCC(N(C)C)CC2)c(-c2cnn(C)c2)cc1Nc1ncc(Cl)c(Nc2ccc(C)c(C)c2P(C)(C)=O)n1`
6.72

// returns reported pIC50 for input `CCn1cc(-c2cc(Nc3ncc(Br)c(Nc4ccc(C)c(C)c4P(C)(C)=O)n3)c(OC)cc2N2CCC(N3CCCCC3)CC2)cn1`
6.82

// returns reported pIC50 for input COc1cc(N2CCN3CCCCC3C2)c(-c2cnn(C)c2)cc1Nc1ncc(Cl)c(Nc2ccc3nccnc3c2P(C)(C)=O)n1 (stereo in doubt)
6.95

FYI, the data here is from patent US20220259235A1.
